- Tested on: arrowleaf sida (Sida rhombifolia)
- TEST_DESCRIPTION: Test E greenhouse herbicide test, pre- and postemergence
- Assay type: in vivo
- EXPERIMENTAL_CONTEXT: Preemergence, 31 g ai/ha; scale 0 to 100, 0 no effect, 100 complete control
Could you please report measured Plant response rating, Arrowleaf Sida for the items listed next?
Numbers only.

The cases that follow already have their Plant response rating, Arrowleaf Sida on record.
MOLECULE: Cc1cc2ccccc2c(-c2c(O)c(C)nn(C)c2=O)c1C [Compound 34]
OBSERVED_RESULT: 0
--
MOLECULE: Cc1nn(C)c(=O)c(-c2ccc(Br)c3ccccc23)c1O [Compound 75]
OBSERVED_RESULT: 50
--
MOLECULE: CCCC(=O)Oc1c(C)nn(C)c(=O)c1-c1c(C)sc2ccc(C)cc12 [Compound 105]
OBSERVED_RESULT: 0
--
MOLECULE: Cc1ccc2sc(C)c(-c3c(OC(=O)OC(C)C)c(C)nn(C)c3=O)c2c1 [Compound 66]
OBSERVED_RESULT: 0

For each of the molecules below, state Plant response rating, Arrowleaf Sida.
1. Cc1nn(C)c(=O)c(-c2ccc(F)c3ccccc23)c1O [Compound 41]
2. COC(=O)Oc1c(C)nn(C)c(=O)c1-c1c(C)sc2ccc(C)cc12 [Compound 80]

# output
1. 20
2. 0
